The origin of these recorded values is patent US4510140A.

experiment: LD50 determined in the mouse (C. S. Weil method); design: unit not given here; conditions: in vivo, po, os
MEASURED PARAMETER: LD50
Respond numerically, and do not add a unit to the figure.

Recorded LD50 for O=C(CCN1CCN(c2ccccn2)CC1)Nc1cc([N+](=O)[O-])cc([N+](=O)[O-])c1 [compound 32] , please? 1.57

Field request: LD50 | item: O=C(CCN1CCN(c2ccccn2)CC1)Nc1ccccc1[N+](=O)[O-] [compound 29] 3.7

Param item = O=C(CCN1CCN(c2ccccn2)CC1)Nc1ccc([N+](=O)[O-])cc1 [compound 6] ; retrieve measured LD50. 0.81

Could you share which LD50 value was measured for CCOC(=O)c1ccc(NC(=O)CCN2CCN(c3ccccn3)CC2)cc1 [compound 41] ? 0.92

Reported LD50, compound Nc1cccc(NC(=O)CCN2CCN(c3ccccn3)CC2)c1 [compound 23] : ____ 0.85

###

tested on: passive cutaneous anaphylaxis; assay: PCA Test: passive cutaneous anaphylaxis induced in the rat with homologous antibodies (Goose and Blair); inhibition of spot areas; type: in vivo; details: Rattus norvegicus, po, read-out: PCA Test - ED50 (inhibition of spot areas)
Please provide measured ED50 for the entries that follow.
Answer in µmol/kg, number only, no unit symbol.

What value of ED50 has been reported for the following compound? O=C(CCN1CCN(c2ccccn2)CC1)Nc1ccccc1Cl 47

Can you look up the measured ED50 of CC(=O)c1cccc(NC(=O)CCN2CCN(c3ccccn3)CC2)c1 for me? 73

Given CC1CN(c2ccccn2)CCN1CCC(=O)Nc1ccc(N)cc1 (stereo not shown) , state its recorded ED50. 39

Which ED50 is reported for this compound? COc1cccc(N2CCN(CCC(=O)Nc3ccc([N+](=O)[O-])cc3)CC2)n1 130

Recorded ED50 for O=C(CCN1CCN(c2ccccn2)CC1)Nc1c(Cl)cccc1Cl , please? 29

Give its ED50 value. Item: Nc1cccc(NC(=O)CCN2CCN(c3ccccn3)CC2)c1 170

What ED50 value was documented for this compound, COc1cccc(N2CCN(CCC(=O)Nc3ccc(N)cc3)CC2)n1 ? 55

Value lookup for ED50; key = CCOC(=O)c1ccc(NC(=O)CCN2CCN(c3ccccn3)CC2)cc1 28

I have this compound here, O=C(CCN1CCN(c2ccccn2)CC1)Nc1ccccc1 , and I need its recorded ED50. 61

# ED50 lookup, item CC1CN(c2ccccn2)CCN1CCC(=O)Nc1ccc([N+](=O)[O-])cc1 (stereo not shown) 230

Quick check: ED50 of O=C(CCN1CCN(c2ccccn2)CC1)Nc1ccc(Cl)cc1 ? 39

Requested read-out: ED50. Entry: O=C(CCN1CCN(c2ccccn2)CC1)Nc1cccc([N+](=O)[O-])c1 68

Which value of ED50 has been reported for COc1cccc(N2CCN(CCC(=O)Nc3ccccc3N)CC2)n1 in the records? 44

Which ED50 value is on record for Cc1cc(C)c(C)c(NC(=O)CCN2CCN(c3ccccn3)CC2)c1C ? 26

What does the record list as ED50 for Cc1ccccc1NC(=O)CCN1CCN(c2ccccn2)CC1 ? 67

// query ED50 value for entry O=C(CCN1CCN(c2ccccn2)CC1)Nc1ccc(O)c([N+](=O)[O-])c1 160

Would you mind telling me what ED50 value was observed for CC(O)c1ccc(NC(=O)CCN2CCN(c3ccccn3)CC2)cc1 (stereo not shown) ? 106

Record request: ED50 value, item CCOc1ccc(NC(=O)CCN2CCN(c3ccccn3)CC2)cc1 54

Recorded ED50 for Nc1ccccc1NC(=O)CCN1CCN(c2ccccn2)CC1 , please? 100

###

Provide the recorded LD50 for the entries that follow.
experiment: LD50 determined in the mouse (C. S. Weil method); set-up: unit not given here; details: in vivo, po, os

Entry under review: O=C(CCN1CCN(c2ccccn2)CC1)Nc1ccc(NC(=O)Nc2ccccc2)cc1 . Reported LD50? > 6.7

Which LD50 reading was recorded for the compound CC(=O)c1ccccc1NC(=O)CCN1CCN(c2ccccn2)CC1 ? > 6.91

What measured LD50 goes with CNC(=O)Nc1ccc(NC(=O)CCN2CCN(c3ccccn3)CC2)cc1 ? > 6.5

###

assay: LD50 determined in the mouse (C. S. Weil method); set-up: unit not given here; conditions: in vivo, po, os
MEASURED PARAMETER: LD50
# answer = number (no unit)

So what does the record say about LD50 for O=C(CCN1CCN(c2ccccn2)CC1)Nc1ccccc1 ? 1.35

Any idea what LD50 was measured for Nc1ccc(NC(=O)CCN2CCN(c3ccccn3)CC2)cc1 ? 1.29

What does the data say about its LD50? Entry: COc1cccc(N2CCN(CCC(=O)Nc3ccc([N+](=O)[O-])cc3)CC2)n1 4.39

Value lookup for LD50; key = CC1CN(c2ccccn2)CCN1CCC(=O)Nc1ccc(N)cc1 (centres unmarked) 2.97

GET /values?readout=LD50&item= CC(O)c1ccc(NC(=O)CCN2CCN(c3ccccn3)CC2)cc1 (centres unmarked) 5.97

For N#Cc1ccc(NC(=O)CCN2CCN(c3ccccn3)CC2)cc1 , what is its reported LD50? 0.62

Requested field: LD50. Item: CC(=O)c1ccc(NC(=O)CCN2CCN(c3ccccn3)CC2)cc1 1.5

###

Answer each item with its documented LD50.
Experiment: LD50 determined in the mouse (C. S. Weil method)
Design: unit not given here
Settings: in vivo, po, os
Procedure: Accordingly, the present invention also features pharmaceutical compositions comprising a pharmaceutically effective amount of a compound having the structural formula (I) as above-defined, or a pharmaceutically acceptable salt thereof, in admixture with conventional pharmaceutically acceptable dileunt or carrier. […] The LD50 of the alkanoylanilides according to the invention was determined in the mouse, both in C. […]

Consider the compound shown here: CCOC(=O)C(=O)Nc1ccc(NC(=O)CCN2CCN(c3ccccn3)CC2)cc1 What is its recorded LD50? > 7.05

Suppose we examine the compound COc1cccc(N2CCN(CCC(=O)Nc3ccccc3[N+](=O)[O-])CC2)n1 ; what LD50 value has been reported? > 7.1

Report LD50 for CSc1ccc(NC(=O)CCN2CCN(c3ccccn3)CC2)cc1 please. > 8.4
